STUDY_SYSTEM: T1, recombinant human IL4Rα-his protein (in house made) (human, UniProt P24394 26-232, limits assumed)
T1 construct: also called Human IL4Ra-his
ASSAY_NAME: competitive ELISA: coated human IL4Rα-his, blocked ligand biotin human IL4
PROPERTY: pIC50
In simple prose, pIC50 is minus the logarithm base ten of a concentration in moles per litre.

Tell me measured pIC50 for huB8G11F2B7G5E8-V4 (antibody, human IgG4 S228P, kappa, V domains shown, Humanized, human IgG4/kappa; also called huBSG11F2B7G5E8-V4) VH: EVQLVQSGAEVKKPGATVKISCKASGFNIKDTYMHWVKQAPGKGLEWMGRIDPTNGYTIYASKFQGKATITADTSSNTAYMELSSLRSEDTAVYHCVSRRPWFAYWGQGTLVTVSS VL: DIVMTQTPLSLSVTPGQPASISCRSSQSIVHSNGNTYLEWYLQKPGQSPQLLIYKVTNRFSGVPDRFSGSGSGTDFTLKISRVEAEDVGVYYCFQGSHVPYTFGQGTKLEIKR please. 9.08

In one line, give reported pIC50 of the entry huB8G11F2B7G5E8-V14 (antibody, human IgG4 S228P, kappa, V domains shown, Humanized, human IgG4/kappa; also called huBSG11F2B7G5E8-V14) VH: EVQLVQSGAEVKKPGATVKISCKVSGFNIKDTYMHWVKQAPGKGLEWMGRIDPTNGYTIYASKFQGKATITADTSSNTAYMELSSLRSEDTAVYHCVSRRPWFAYWGQGTLVTVSS VL: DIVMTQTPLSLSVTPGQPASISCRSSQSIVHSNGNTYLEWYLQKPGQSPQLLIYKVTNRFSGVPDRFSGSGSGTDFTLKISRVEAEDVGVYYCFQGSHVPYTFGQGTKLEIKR . 8.99

Could you please provide reported pIC50 for chimeric antibody B8G11F2B7G5E8 (antibody, human IgG4 S228P, kappa, V domains shown, Mouse variable domains on human IgG4/kappa; also called Chimeric B8G11F2B7G5E8; chB8G11F2B7G5E8) VH: EVQLQQSGADLVRPGASVKLSCTASGFNIKDTYMHWVKQRPEQGLEWVGRIDPTNGYTIYASKFQGKATITADTSSNTAYMQLSSLTSGDTAVYHCVSRRPWFAYWGQGTLVTVSA VL: DILMTQTPLSLPVSLGAQASISCRSSQSIVHSNGNTYLEWYLQKPGQSPKLLIYKVTNRFSGVPDRFSGSGSGTDFTLKISRVEAEDLGIYYCFQGSHVPYTFGGGTKLEIKR ? Thanks! 8.85

Please supply the value of reported pIC50 for the item huB8G11F2B7G5E8-V2 (antibody, human IgG4 S228P, kappa, V domains shown, Humanized, human IgG4/kappa; also called huBSG11F2B7G5E8-V2) VH: EVQLVQSGAEVKKPGATVKISCKVSGFNIKDTYMHWVKQAPGKGLEWVGRIDPTNGYTIYASKFQGKATITADTSSNTAYMELSSLRSEDTAVYHCVSRRPWFAYWGQGTLVTVSS VL: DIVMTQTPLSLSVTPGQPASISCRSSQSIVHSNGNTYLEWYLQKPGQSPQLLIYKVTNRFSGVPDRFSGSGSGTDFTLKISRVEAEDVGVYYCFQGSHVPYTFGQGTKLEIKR 9.00
